Assay: antimalarial activity against Dd2 strain (AID 2302);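 also: 0% = DMSO untreated growth and 100% = chloroquine plus artemisinin killed control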
Conditions: P. falciparum Dd2 in RBCs, LDH growth readout, 72 h; at 2 µM; active compounds read high
metric_name: growth inhibition (%)
Field: numeric (%). Do not append units.

Find the measured growth inhibition of COc1cc(NC(=O)/C=C/c2cc(F)cc(F)c2F)cc(OCCN2CCCCC2)c1 and report it.
80

Find the measured growth inhibition of COc1ccc2c(NN=Cc3ccccc3F)ccnc2c1 and report it.
99

Please supply the value of reported growth inhibition for the item COc1ccc(CN2CCC(CNCCc3c(Cl)cccc3Cl)CC2)cc1
69

Given the compound CO/C(=C\C=C\c1cc2cc(Cl)c(Cl)cc2[nH]1)C(=O)NCCCN1CCCC[C@@H]1C , write its reported growth inhibition.
83

Return growth inhibition (reported value) for this compound: O=C(c1cc(-c2ccccc2)n[nH]1)N1CCN(S(=O)(=O)c2ccc(Cl)s2)CC1
81

Determine from records and report growth inhibition for CC(=O)Nc1ccc(C(=O)Nc2cccc(-c3ccc(-c4nc5ccccc5[nH]4)cc3)c2)cn1
93

Provide one value: measured growth inhibition of CCc1nc(N)nc(N)c1-c1ccc2c(c1)CCCC2
-5

Report growth inhibition, nothing else, for this compound: Cc1nc(NCc2ccccc2)cc(Nc2cc(NCc3ccccc3)nc(C)n2)n1
32

Indicate the recorded growth inhibition value for this compound: COc1ccc2c(=O)c(Br)c(C)[nH]c2c1
74

Tell me growth inhibition reported for O=C(Cc1cccc(Cl)c1)Nc1cccc(-c2c[nH]c3nc(Nc4cccc(OCc5ccccc5)c4)ncc23)c1
56

Look up growth inhibition of Cc1[nH]c(C)c(-c2ccc(Oc3cccc(OC(F)(F)F)c3)cc2)c(=O)c1Br and report it.
96

Tell me measured growth inhibition for COc1cc(C(=O)NC2CC(C)(C)N(C)C(C)(C)C2)ccc1-c1nc2cc(Cl)c(Cl)cc2[nH]1 please.
99

Supply growth inhibition value. Item: CC(C)(CN)c1nc(-c2ccc(Cl)c(O)c2)c(-c2ccnc(N)n2)[nH]1
95

State its growth inhibition: CCCC(C)NC(=O)[C@H](CC1CCCCC1)NC(=O)c1ccc(O)c(-c2ccc(OC)cc2)c1 (stereo not given in full)
37

Respond only with growth inhibition recorded for COc1cc(CCNC(=O)Cc2ccc3ccccc3c2)ccc1OCc1ccccc1
61

Query growth inhibition for CCOc1cc(C)ccc1C1CCN(CCCCNC(=O)c2cccc(-c3ccc(C(F)(F)F)cc3)c2)CC1
55

Using the record for COc1ccc(CNCc2ccc(-c3ccc(-c4nc5ccc(C(F)(F)F)cc5[nH]4)s3)cc2)cc1 , state its measured growth inhibition.
98

Specify reported growth inhibition for the compound shown: CCCCCCN1CCCN(Cc2cccc(NC(=O)c3cc4ccccc4s3)c2)CC1
53

In one line, give reported growth inhibition of the entry CCOc1cc2ncnc(Nc3ccc(OCc4ccccc4OC)c(OC)c3)c2cc1OCC .
52

Fill in growth inhibition for record CC(C)C[C@H](NC(=O)c1ccc(OCCN2CCOCC2)cc1)C(=O)N[C@H](/C=N/N1CC(=O)NC1=O)CCc1ccccc1
67

Let me know recorded growth inhibition for CC1(C)N=C(N)N=C(N)N1OCOc1ccc(Cl)cc1 , thanks.
96

Output growth inhibition of O=C(Nc1ccc(Cl)cc1)c1cccc(CN2CCCN(Cc3cccc(O)c3)CC2)c1
43

Check the records and state growth inhibition for CC1CCCCC1N(C)C1CCN(CCCNC(=O)C=Cc2ccccc2Cl)CC1 (stereo not given)
14

State its growth inhibition for this compound: O=[N+]([O-])c1cc(C(c2ccc(O)c([N+](=O)[O-])c2)C(Cl)(Cl)Cl)ccc1O
98

Give recorded growth inhibition. O=C(/C=C/c1ccc(C(F)(F)F)cc1)NCCCCCN1CCCN(C(=O)Nc2cccc(Cl)c2)CC1
3

Please report the measured growth inhibition for CC(C)(C)c1ccc2nc(-c3ccc(C(=O)NCc4cccc(C(F)(F)F)c4)cc3)[nH]c2c1
26

Indicate the recorded growth inhibition value for this compound: O=c1cc(NCC2(CNCc3cn(Cc4ccccc4)c4ccccc34)CCCCC2)[nH]c2ccccc12
56

For NS(=O)(=O)Cc1cccc(-c2ccnc3ccc(-c4cccc(S(N)(=O)=O)c4)cc23)c1 , write its growth inhibition.
42

Could you please provide reported growth inhibition for Fc1ccc2nc(-c3cccc(-c4ccc(CNCc5cnn(-c6ccccc6)n5)cc4)c3)[nH]c2c1 ? Thanks!
22

Report growth inhibition, nothing else, for this compound: CN(C)CCNCc1ccc(-c2ccc3c(Nc4ccc(Cl)cc4F)ccnc3c2)o1
100

Answer with reported growth inhibition of N#Cc1cc(C(=O)c2cc(Cl)ccc2O)cn(-c2cccc(C(F)(F)F)c2)c1=O
7

Determine its reported growth inhibition: COc1ccc(N(C)Cc2cnc3nc(N)nc(N)c3n2)cc1
-1

Provide measured growth inhibition value, entry: COc1ccc(C(=O)Nc2ccc(Cl)cc2C(=O)Nc2ccncc2)cc1
29

Identify growth inhibition associated with the compound Cc1c(Cc2ccc(C(C)C)cc2)cnc2nc(N)nc(N)c12
-3

Annotate the compound COc1cc(Cc2cnc(N)nc2N)cc(OCCCCCCC(=O)O)c1OC with its measured growth inhibition.
2

Using the record for CC1CCN(Cc2c(O)ccc3c(CN4CCC(C)CC4)c(O)ccc23)CC1 , state its measured growth inhibition.
86

# return recorded growth inhibition for input NC(N)=NC(=O)Nc1cc(Br)c(Cl)c(C(F)(F)F)c1
91

Please give the documented growth inhibition of COc1c(CN2CCOCC2)cccc1-c1cc2c(-c3ccc(C(=O)O)c(C(C)C)c3)ccnc2[nH]1
90

Give reported growth inhibition value for Cn1c(=N)cc(-c2cccc(I)c2)c2c(=O)[nH]c(N)nc21
75

Answer with reported growth inhibition of CN1CCCC(CN2CCN(Cc3ccc(-c4ccc(-c5nc6ccccc6[nH]5)s4)cc3)CC2)C1 (stereo not given)
100

---

Test: ovarian cancer cell viability with rucaparib, profiling panel, oncology-focused library, rucaparib conditional (AID 1508598)
Conditions: patient-derived ovarian cancer cells, CellTiter-Glo viability, 144 h; at 0.0195 µM; OCI-P5x cells; without rucaparib
The source made the active and inactive calls.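 Rule for the calls: active = normalized viability below 100% at a tested concentration; inactive = the rest.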
Outcomes you can answer with include only these: active, inactive

Short answer needed: outcome of this test for O=c1cc(-c2cccc3c2Sc2ccccc2S3)oc(N2CCOCC2)c1 ?
active

Test call for this molecule, please: CC(NC(=O)c1ccccc1N=Cc1c(O)ccc2ccccc12)c1ccccc1 (stereo not drawn)
active

# lookup: test call for O=c1[nH]c(-c2ccc(C(F)(F)F)cc2)nc2c1CSCC2
inactive

I would be grateful if you could indicate the recorded call for Nc1nc(Cl)nc2c1ncn2[C@H]1C[C@H](O)[C@@H](CO)O1 .
active

Which outcome was entered for the molecule C[C@H](NC(=O)Cc1cc(F)cc(F)c1)C(=O)N[C@H](C(=O)OC(C)(C)C)c1ccccc1 in this test?
inactive

Could you please tell me the result logged for O=c1cc(N2CCOCC2)oc2c(-c3ccccc3)cccc12 in this assay?
active

Tell me the recorded outcome of this test for O=C1CN2Cc3c(ccc(Cl)c3Cl)N=C2N1 .
inactive

Query: recorded result category for C[C@@H](N)C1CCC(C(=O)Nc2ccncc2)CC1 (stereo partly drawn) in this test
inactive

---

Molecular target: Plasmodium falciparum protein kinase 6 (PK6, PF3D7_1337100) (UniProt Q8IDW1)
Assay: PfPK6 kinase inhibitors, biochemical, TCAMS library (AID 1159586)
Details: recombinant PfPK6, Kinase-Glo ATP depletion luminescence
Entries with a potency or affinity are not part of this list. Calls of active or inactive are those of the source. No rule for the calls is given here.
metric_name: outcome

// worked examples, outcome included
O=S(=O)(c1c(Cl)cc(Cl)cc1Cl)N1CCCCC(c2ccc(F)c(F)c2)=N1	inactive
CCCCOc1c(CCNCCCCNCCc2cc(OC)c3ccccc3c2OCCCC)cc(OC)c2ccccc12	inactive
CCc1sc(N2CCN(C)CC2)nc1C(=O)NCCc1ccc(Cl)c(Cl)c1	inactive
c1ccc(Oc2ccc(Nc3ccnc4cc(-c5cccc(CNCCN6CCOCC6)c5)ccc34)cc2)cc1	inactive
CS(=O)(=O)CCNCc1cccc(-c2ccc3c(Nc4cc(O)c(Cl)cc4F)ccnc3c2)c1	inactive

Recall and state the measured outcome for CCCCNC(=O)C1CCCN(C(=O)c2ccc(O)c(-c3ccc(Cl)c(Cl)c3)c2)C1 (centres undefined) .
inactive

Write down outcome measured for item Cc1[nH]c(C)c(-c2ccc(Oc3ccc(OC(F)(F)F)cc3)cc2)c(=O)c1I
inactive

Look up outcome of Cn1cccc1C(=O)Nc1cccc(-c2nn3ccccc3c2-c2ccnc(Nc3ccc4c(c3)OCCO4)n2)c1 and report it.
inactive

Report outcome, nothing else, for this molecule: COc1ccc2c(c1)CCN(CCN1CCC(CNC(=O)c3ccc(-c4ccc(C#N)cc4)cc3)CC1)C2
inactive

Indicate its recorded outcome; the molecule in question is Cc1cccc2[nH]c(-c3ccc(-c4cccc(CN5CCN(CCN6CCOCC6)CC5)c4)s3)nc12
inactive

Provide only the value of recorded outcome for Cc1cccc(CN2CCC(C(=O)Nc3ccc(-c4nc5ccccc5[nH]4)cc3)CC2)n1
inactive

Identify measured outcome corresponding to O=C(Nc1cccc(-c2nn3ccccc3c2-c2ccnc(Nc3cccc(F)c3)n2)c1)C1CCCCC1
inactive

Note down outcome recorded for Cc1cc(F)ccc1-c1nc(Nc2ccncc2)c2ccn(C)c2n1
inactive
